log10 of IC50 reference
Test system: Plasmodium falciparum
Assay: Antimalarial activity against chloroquine-resistant Plasmodium falciparum FcB1 after 24 hrs
Type: functional, organism-based
Settings: FcB1, 24 h
Use the decimal logarithm of IC50 (µM).

CC(=O)O[C@H]1CC[C@]2(C)[C@H]3CC=C4[C@@H]5[C@@H](C)[C@H](C)CC[C@]5(C(=O)O)CC[C@@]4(C)[C@]3(C)CC[C@H]2C1(C)C [O-ACETYLURSOLIC ACID]    1.40

Exercise: Supply reported log10 of IC50 belonging to this compound: CC(=O)O[C@H]1CC[C@]2(C)[C@H]3CC=C4[C@@H]5[C@@H](C)[C@H](C)CC[C@]5(C(=O)NCCCN5CCN(CCCN(CCCc6ccccc6)CCCc6ccccc6)CC5)CC[C@@]4(C)[C@]3(C)CC[C@H]2C1(C)C
Key: 0.91

Exercise: Supply reported log10 of IC50 belonging to this compound: CC(=O)O[C@H]1CC[C@]2(C)[C@H]3CC=C4[C@@H]5[C@@H](C)[C@H](C)CC[C@]5(C(=O)NCCCN5CCN(CCCN(CC6CC6)CC6CC6)CC5)CC[C@@]4(C)[C@]3(C)CC[C@H]2C1(C)C
Key: -0.31

Exercise: Supply reported log10 of IC50 belonging to this compound: COc1ccc(CN(CCCN2CCN(CCCNC(=O)[C@]34CC[C@@H](C)[C@H](C)[C@H]3C3=CC[C@@H]5[C@@]6(C)CC[C@H](OC(C)=O)C(C)(C)[C@@H]6CC[C@@]5(C)[C@]3(C)CC4)CC2)Cc2ccc(OC)cc2)cc1
Key: 0.81

Exercise: Supply reported log10 of IC50 belonging to this compound: CC(=O)O[C@H]1CC[C@]2(C)[C@H]3CC=C4[C@@H]5[C@@H](C)[C@H](C)CC[C@]5(C(=O)NCCCN5CCN(CCCNCc6ccc(O)cc6)CC5)CC[C@@]4(C)[C@]3(C)CC[C@H]2C1(C)C
Key: -1.10

* * *

Biological target: Histidine-rich protein PFHRP-II (Plasmodium falciparum)
Experiment: Relative chloroquine IC50 for beta-hematin formation
Type: functional
quantity_name: Ratio IC50

Worked examples follow.
CC(=O)O[C@H]1CC[C@]2(C)[C@H]3CC=C4[C@@H]5[C@@H](C)[C@H](C)CC[C@]5(C(=O)NCCCN5CCN(CCCN(Cc6ccc(O)cc6)Cc6ccc(O)cc6)CC5)CC[C@@]4(C)[C@]3(C)CC[C@H]2C1(C)C    0.89
CC(=O)O[C@H]1CC[C@]2(C)[C@H]3CC=C4[C@@H]5[C@@H](C)[C@H](C)CC[C@]5(C(=O)NCCCN5CCN(CCCN)CC5)CC[C@@]4(C)[C@]3(C)CC[C@H]2C1(C)C    > 3.4
CC(=O)O[C@H]1CC[C@]2(C)[C@H]3CC=C4[C@@H]5[C@@H](C)[C@H](C)CC[C@]5(C(=O)NCCCN5CCN(CCCN(Cc6ccc([N+](=O)[O-])cc6)Cc6ccc([N+](=O)[O-])cc6)CC5)CC[C@@]4(C)[C@]3(C)CC[C@H]2C1(C)C    > 3.4

Here is another molecule to look at.
Exercise: Supply reported Ratio IC50 belonging to this molecule: C[C@H]1[C@H](C)CC[C@]2(C(=O)O)CC[C@]3(C)C(=CC[C@@H]4[C@@]5(C)CC[C@H](O)C(C)(C)[C@@H]5CC[C@]43C)[C@H]12
Key: > 3.4

* * *

Tested on: Plasmodium falciparum
Test: Antimalarial activity against chloroquine-resistant Plasmodium falciparum FcB1 after 24 hrs
Assay type: functional, organism-based
Conditions: FcB1, 24 h
quantity_name: log10(IC50) (log10 of the value in µM)
Use the decimal logarithm of IC50 (µM).

CC(=O)O[C@H]1CC[C@]2(C)[C@H]3CC=C4[C@@H]5[C@@H](C)[C@H](C)CC[C@]5(C(=O)NCCCN5CCN(CCCN(Cc6ccc(F)cc6)Cc6ccc(F)cc6)CC5)CC[C@@]4(C)[C@]3(C)CC[C@H]2C1(C)C    1.31
C[C@H]1[C@H](C)CC[C@]2(C(=O)NCCCN3CCN(CCCN)CC3)CC[C@]3(C)C(=CC[C@@H]4[C@@]5(C)CC[C@H](O)C(C)(C)[C@@H]5CC[C@]43C)[C@H]12    -0.49

Exercise: Fill in log10(IC50) for CCCCCCCN(CCCCCCC)CCCN1CCN(CCCNC(=O)[C@]23CC[C@@H](C)[C@H](C)[C@H]2C2=CC[C@@H]4[C@@]5(C)CC[C@H](OC(C)=O)C(C)(C)[C@@H]5CC[C@@]4(C)[C@]2(C)CC3)CC1 tested with Plasmodium falciparum.
Key: 1.62

Exercise: Fill in log10(IC50) for CC(=O)O[C@H]1CC[C@]2(C)[C@H]3CC=C4[C@@H]5[C@@H](C)[C@H](C)CC[C@]5(C(=O)NCCCN5CCN(CCCN(Cc6ccc(Cl)cc6)Cc6ccc(Cl)cc6)CC5)CC[C@@]4(C)[C@]3(C)CC[C@H]2C1(C)C tested with Plasmodium falciparum.
Key: 1.66

Exercise: Fill in log10(IC50) for CC(=O)O[C@H]1CC[C@]2(C)[C@H]3CC=C4[C@@H]5[C@@H](C)[C@H](C)CC[C@]5(C(=O)NCCCN5CCN(CCCNCc6ccc([N+](=O)[O-])cc6)CC5)CC[C@@]4(C)[C@]3(C)CC[C@H]2C1(C)C tested with Plasmodium falciparum.
Key: 0.02

Exercise: Fill in log10(IC50) for CC(=O)O[C@H]1CC[C@]2(C)[C@H]3CC=C4[C@@H]5[C@@H](C)[C@H](C)CC[C@]5(C(=O)NCCCN5CCN(CCCN(Cc6ccccc6)Cc6ccccc6)CC5)CC[C@@]4(C)[C@]3(C)CC[C@H]2C1(C)C tested with Plasmodium falciparum.
Key: 1.32

Exercise: Fill in log10(IC50) for C[C@H]1[C@H](C)CC[C@]2(C(=O)O)CC[C@]3(C)C(=CC[C@@H]4[C@@]5(C)CC[C@H](O)C(C)(C)[C@@H]5CC[C@]43C)[C@H]12 tested with Plasmodium falciparum.
Key: 1.72

Exercise: Fill in log10(IC50) for CCCCN(CCCC)CCCN1CCN(CCCNC(=O)[C@]23CC[C@@H](C)[C@H](C)[C@H]2C2=CC[C@@H]4[C@@]5(C)CC[C@H](OC(C)=O)C(C)(C)[C@@H]5CC[C@@]4(C)[C@]2(C)CC3)CC1 tested with Plasmodium falciparum.
Key: 0.00

* * *

log10(IC50) reference
Test system: MRC5
Experiment: Cytotoxicity against human MRC5 cells
Format: cell-based
Use the decimal logarithm of IC50 (µM).

Worked examples follow.
CC(=O)O[C@H]1CC[C@]2(C)[C@H]3CC=C4[C@@H]5[C@@H](C)[C@H](C)CC[C@]5(C(=O)NCCCN5CCN(CCCNCc6ccc([N+](=O)[O-])cc6)CC5)CC[C@@]4(C)[C@]3(C)CC[C@H]2C1(C)C    0.73
CC(=O)O[C@H]1CC[C@]2(C)[C@H]3CC=C4[C@@H]5[C@@H](C)[C@H](C)CC[C@]5(C(=O)NCCCN5CCN(CCCNCc6ccc(O)cc6)CC5)CC[C@@]4(C)[C@]3(C)CC[C@H]2C1(C)C    0.32
CCCN(CCC)CCCN1CCN(CCCNC(=O)[C@]23CC[C@@H](C)[C@H](C)[C@H]2C2=CC[C@@H]4[C@@]5(C)CC[C@H](OC(C)=O)C(C)(C)[C@@H]5CC[C@@]4(C)[C@]2(C)CC3)CC1    0.29
CC(=O)O[C@H]1CC[C@]2(C)[C@H]3CC=C4[C@@H]5[C@@H](C)[C@H](C)CC[C@]5(C(=O)NCCCN5CCN(CCCN)CC5)CC[C@@]4(C)[C@]3(C)CC[C@H]2C1(C)C    0.21
CC(=O)O[C@H]1CC[C@]2(C)[C@H]3CC=C4[C@@H]5[C@@H](C)[C@H](C)CC[C@]5(C(=O)NCCCN5CCN(CCCN(CC6CC6)CC6CC6)CC5)CC[C@@]4(C)[C@]3(C)CC[C@H]2C1(C)C    0.40

Exercise: Supply reported log10(IC50) belonging to this compound: CC(=O)O[C@H]1CC[C@]2(C)[C@H]3CC=C4[C@@H]5[C@@H](C)[C@H](C)CC[C@]5(C(=O)NCCCN5CCN(CCCN(Cc6ccc([N+](=O)[O-])cc6)Cc6ccc([N+](=O)[O-])cc6)CC5)CC[C@@]4(C)[C@]3(C)CC[C@H]2C1(C)C
Key: 1.26

Exercise: Supply reported log10(IC50) belonging to this compound: CC(=O)O[C@H]1CC[C@]2(C)[C@H]3CC=C4[C@@H]5[C@@H](C)[C@H](C)CC[C@]5(C(=O)NCCCN5CCN(CCCN(Cc6ccc(O)cc6)Cc6ccc(O)cc6)CC5)CC[C@@]4(C)[C@]3(C)CC[C@H]2C1(C)C
Key: 0.20
